Test system: MDA-MB-231 cells
ASSAY NAME: Anti-proliferation test (CCK8), singly and combined with TMZ
Assay type: cell-based
SETTINGS: Homo sapiens, MDA-MB-231, 192 h, MDA-MB-231, combined with 1uM TMZ, 8 days, average; read-out: IC50_Avg
Let's look at some molecules and their measured pIC50.
Just so you know, pIC50 here is -log10 of the concentration in molar units; reply with that number alone.

>>> quantitative_readout("CC(C)N1CCC(C)(c2cnn3c2[nH]c2cc(F)cc(C(N)=O)c23)CC1")
5.31

The reported pIC50 of the molecule C[C@]1(c2nc3c(C(N)=O)cccc3[nH]2)CCCN1 was 4.51
